# Tested on: estrogen receptor (rat uterine cytosol)
# method notes: DSSTox (NCTRER) National Center for Toxicological Research Estrogen Receptor Binding Database;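 note: ratio of estradiol IC50 over compound IC50 times 100 so estradiol equals 100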
# settings: rat uterine cytosol ER competitive binding, RBA; ChemClass_ERB: Misc; hits give high values
Inconclusive results are not listed.
measured metric: relative binding affinity (%)
Report only the number, with the unit % understood.

Please review the entries below; each comes with its answer.
Exercise: Note down relative binding affinity recorded for CC[C@@H](c1ccc2cc(O)ccc2c1)C(C)(C)C(=O)O
Solution: 0.955

Exercise: Note down relative binding affinity recorded for C[Si](C)(O[Si](C)(C)c1ccccc1)c1ccccc1
Solution: 0.00069

Exercise: Note down relative binding affinity recorded for C[C@H](Cc1ccc(O)c(O)c1)[C@H](C)Cc1ccc(O)c(O)c1
Solution: 0.0309

Next:
Exercise: Note down relative binding affinity recorded for CC[C@@H]1c2ccc3cc(OC)ccc3c2CC[C@]1(C)C(=O)O
Solution: 0.00181

---

# System: estrogen receptor (rat uterine cytosol)
# method notes: DSSTox (NCTRER) National Center for Toxicological Research Estrogen Receptor Binding Database;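 note: ratio of estradiol IC50 over compound IC50 times 100 so estradiol equals 100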
# settings: rat uterine cytosol ER competitive binding, RBA; ChemClass_ERB: Steroids With aromatic A ring; hits give high values
Inconclusive results are not listed.
Decide using relative binding affinity: a value greater than or equal to 10% is Criterion met, a smaller one is Criterion not met.

Example cases with answers are listed next.
Exercise: Kindly determine if relative binding affinity recorded for CCCCN(C)C(=O)CCCCCCCCCC[C@@H]1Cc2cc(O)ccc2[C@H]2CC[C@]3(C)[C@@H](O)CC[C@H]3[C@H]12 is above or exactly 10%.
Solution: Criterion met

Exercise: Kindly determine if relative binding affinity recorded for C#C[C@]1(O)CC[C@H]2[C@@H]3CCc4cc(O)ccc4[C@H]3[C@@H](OC)C[C@@]21C is above or exactly 10%.
Solution: Criterion met

Below: the item to evaluate.
Exercise: Kindly determine if relative binding affinity recorded for C[C@]12CC[C@@H]3c4ccc(O)cc4CC[C@H]3[C@@H]1CCC2=O is above or exactly 10%.
Solution: Criterion not met

---

# Test system: estrogen receptor (rat uterine cytosol)
# method notes: DSSTox (NCTRER) National Center for Toxicological Research Estrogen Receptor Binding Database;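 note: ratio of estradiol IC50 over compound IC50 times 100 so estradiol equals 100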
# settings: rat uterine cytosol ER competitive binding, RBA; ChemClass_ERB: Phytoestrogens Flavanones; hits give high values
Results filed as inconclusive are left out.
measured metric: relative binding affinity (%)
Report only the number, with the unit % understood.

Please review the entries below; each comes with its answer.
Exercise: Note down relative binding affinity recorded for O=C1C[C@@H](c2ccc(O)cc2)Oc2cc(O)cc(O)c21
Solution: 0.0074

Exercise: Note down relative binding affinity recorded for O=C1CC(c2ccc(O)cc2)Oc2ccccc21 (centres undefined)
Solution: 0.00223

Exercise: Note down relative binding affinity recorded for O=C1CC(c2ccccc2)Oc2ccc(O)cc21 (centres undefined)
Solution: 0.00089

Now for another entry.
Exercise: Note down relative binding affinity recorded for O=C1CC(c2cccc(O)c2)Oc2ccccc21 (centres undefined)
Solution: 0.00165

---

Each entry below lists one item and its recorded relative binding affinity value.
# System: estrogen receptor (rat uterine cytosol)
# method notes: DSSTox (NCTRER) National Center for Toxicological Research Estrogen Receptor Binding Database;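 note: ratio of estradiol IC50 over compound IC50 times 100 so estradiol equals 100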
# settings: rat uterine cytosol ER competitive binding, RBA; ChemClass_ERB: Phenols Alkyloxy; hits give high values
Inconclusive results are not listed.
Report only the number, with the unit % understood.

Exercise: Note down relative binding affinity recorded for Oc1ccc(OCc2ccccc2)cc1
Solution: 0.00036

Now for another entry.
Exercise: Note down relative binding affinity recorded for CCCCCCCOc1ccc(O)cc1
Solution: 0.00131
